// provenance: patent US20240158446A1

- Target Entity: GDP-bound KRAS wild-type protein (Homo sapiens, UniProt P01116)
- Sequence (P01116 whole entry): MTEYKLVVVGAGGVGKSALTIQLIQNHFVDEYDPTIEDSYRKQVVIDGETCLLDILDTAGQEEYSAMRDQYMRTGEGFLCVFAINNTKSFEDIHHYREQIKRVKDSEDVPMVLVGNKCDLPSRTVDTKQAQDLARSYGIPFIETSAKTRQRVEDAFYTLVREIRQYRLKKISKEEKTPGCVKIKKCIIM
- Procedure Details: Binding to KRAS by surface plasmon resonance (SPR), Single Cycle Kinetics
- Assay Setup: SPR, Single Cycle Kinetics, GDP-bound KRAS wild-type protein; read-out: KRAS KD
Where a SMILES comes first, the peptide text is derived from it. Bridges are numbered along the chain shown (N, C = ends). [ ]: non-standard residue; d: D form. The star is where a group is joined. hPhe(3-Cl-4-CF3) = N[C@@H](CCc1ccc(C(F)(F)F)c(Cl)c1)C(=O)O; NPrPhe(4-CF3) = CCCN[C@@H](Cc1ccc(C(F)(F)F)cc1)C(=O)O; NMeGly(cPent) = CN[C@H](C(=O)O)C1CCCC1; NMeD = CN[C@@H](CC(=O)O)C(=O)O; NMeL = CN[C@@H](CC(C)C)C(=O)O; Morpholide = C1CN(*)CCO1; Ac4c = NC1(C(=O)O)CCC1; NEtG = CCNCC(=O)O; Sar = CNCC(=O)O
For each of the molecules below, state its Kd.
The figure you give is taken to be in nM; do not add the unit.

Problem: Fill blank: measured Kd of the molecule "CCC[C@H]1C(=O)N[C@@H]([C@@H](C)CC)C(=O)N[C@@H](C)C(=O)N(C)[C@H]2C/C=C\CCN(C2=O)[C@@H](Cc2ccc(C(F)(F)F)cc2)C(=O)N(C)CC(=O)N[C@@H](CCc2cc(F)c(C(F)(F)F)c(F)c2)C(=O)N2C[C@H](OCC)C[C@H]2C(=O)NC2(CC(C)(C)C2)C(=O)N(C)[C@@H](C2CCCC2)C(=O)N(C)[C@H](C(=O)N(C)C)CC(=O)N1C" is ____.
Result: 0.85

Problem: Entry CCCN1C(=O)CN(C)C(=O)CN(C)C(=O)[C@H]([C@@H](C)CC)NC(=O)[C@H](CC(C)C)N(C)C(=O)C[C@@H](C(=O)N2CCOCC2)N(C)C(=O)[C@H](C2CCCC2)N(C)C(=O)C2(CCC2)NC(=O)[C@@H]2CCCN2C(=O)[C@H](CCc2ccc(C(F)(F)F)c(Cl)c2)NC(=O)CN(CC)C(=O)[C@@H]1Cc1ccc(C(F)(F)F)cc1 [PP1950] ([NMeL]I[Sar][Sar][NPrPhe(4-CF3)][NEtG][hPhe(3-Cl-4-CF3)]P[Ac4c][NMeGly(cPent)][NMeD]-Morpholide; lactam N-11) please
Result: 1.9

Problem: Entry "CC[C@H](C)[C@@H]1NC(=O)[C@H](COC)N(C)C(=O)C[C@@H](C(=O)N2CCOCC2)N(C)C(=O)[C@H](C2CCCC2)N(C)C(=O)C2(CCC2)NC(=O)[C@@H]2CCCN2C(=O)[C@H](CCc2cc(F)c(C(F)(F)F)c(F)c2)NC(=O)CN(C)C(=O)[C@H](Cc2ccc(C(F)(F)F)cc2)N2CCCCC[C@@H](C2=O)N(C)C(=O)CNC1=O" please
Result: 1.1

---

- Target Entity: GDP-bound KRAS wild-type protein (Homo sapiens)
- Procedure Details: Binding to KRAS by surface plasmon resonance (SPR), Single Cycle Kinetics
- Assay Setup: SPR, Single Cycle Kinetics, GDP-bound KRAS wild-type protein; read-out: KRAS KD
Where a SMILES comes first, the peptide text is derived from it. Bridges are numbered along the chain shown (N, C = ends). [ ]: non-standard residue; d: D form. The star is where a group is joined. hPhe(3-Cl-4-CF3) = N[C@@H](CCc1ccc(C(F)(F)F)c(Cl)c1)C(=O)O; NPrPhe(4-CF3) = CCCN[C@@H](Cc1ccc(C(F)(F)F)cc1)C(=O)O; NMeGly(cPent) = CN[C@H](C(=O)O)C1CCCC1; NMeD = CN[C@@H](CC(=O)O)C(=O)O; NMeL = CN[C@@H](CC(C)C)C(=O)O; Piperidide = C1CCN(*)CC1; Ac4c = NC1(C(=O)O)CCC1; Sar = CNCC(=O)O
Observable: pKd
Reminder that pKd is minus the log10 of a molar concentration.

Problem: Give the measured pKd of CCCN1C(=O)CN(C)C(=O)CN(C)C(=O)[C@H]([C@@H](C)CC)NC(=O)[C@H](CC(C)C)N(C)C(=O)C[C@@H](C(=O)N2CCCCC2)N(C)C(=O)[C@H](C2CCCC2)N(C)C(=O)C2(CCC2)NC(=O)[C@@H]2CCCN2C(=O)[C@H](CCc2ccc(C(F)(F)F)c(Cl)c2)NC(=O)CN(C)C(=O)[C@@H]1Cc1ccc(C(F)(F)F)cc1 [PP1930] ([NMeL]I[Sar][Sar][NPrPhe(4-CF3)][Sar][hPhe(3-Cl-4-CF3)]P[Ac4c][NMeGly(cPent)][NMeD]-Piperidide; lactam N-11) .
Result: 9.64

---

- Target Entity: GDP-bound KRAS wild-type protein (Homo sapiens)
- Procedure Details: Binding to KRAS by surface plasmon resonance (SPR), Single Cycle Kinetics
- Assay Setup: SPR Single Cycle Kinetics, GDP-bound KRAS wild-type protein, 1:1 binding model; read-out: KRAS KD
*1 amine or outer side, *2 acyl side, *3 side chain or, on linkers, in order; H or OH if unused. Where a SMILES comes first, the peptide text is derived from it. Bridges are numbered along the chain shown (N, C = ends). [ ]: non-standard residue; d: D form. The star is where a group is joined. hPhe(3-Cl-4-CF3) = N[C@@H](CCc1ccc(C(F)(F)F)c(Cl)c1)C(=O)O; X31 = COCCCN([C@@H](Cc1ccc(C(F)(F)F)cc1)C(=O)[*:2])[*:1]; NPrPhe(4-CF3) = CCCN[C@@H](Cc1ccc(C(F)(F)F)cc1)C(=O)O; NMeGly(cPent) = CN[C@H](C(=O)O)C1CCCC1; Pro(4,4-Me2) = CC1(C)CN[C@H](C(=O)O)C1; Hyp = O=C(O)[C@@H]1C[C@@H](O)CN1; NMeD = CN[C@@H](CC(=O)O)C(=O)O; NMeL = CN[C@@H](CC(C)C)C(=O)O; Morpholide = C1CN(*)CCO1; Ac5c = NC1(C(=O)O)CCCC1; Aze = O=C(O)[C@@H]1CCN1; Abu = CC[C@H](N)C(=O)O; Ac4c = NC1(C(=O)O)CCC1; NEtG = CCNCC(=O)O; Sar = CNCC(=O)O
Record form. Attribute: Kd. Fill in for each entry.
The figure you give is taken to be in pM; do not add the unit.

Problem: Would you kindly share the measured Kd for CC[C@H](C)[C@@H]1NC(=O)[C@H](CC(C)C)N(C)C(=O)C[C@@H](C(=O)N2CCOCC2)N(C)C(=O)[C@H](C2CCCC2)N(C)C(=O)C2(CCCC2)NC(=O)[C@@H]2CCCN2C(=O)[C@H](CCc2ccc(C(F)(F)F)c(Cl)c2)NC(=O)CN(C)C(=O)[C@H](Cc2ccc(C(F)(F)F)cc2)N(CCCOC)C(=O)CN(C)C(=O)CN(C)C1=O [PP0133] ([NMeL]I[Sar][Sar][X31][Sar][hPhe(3-Cl-4-CF3)]P[Ac5c][NMeGly(cPent)][NMeD]-Morpholide; lactam N-11) ?
Result: 80

Problem: // query: CCCN1C(=O)CN(C)C(=O)[C@@H]2CCN2C(=O)[C@H]([C@@H](C)CC)NC(=O)[C@H](CC(C)C)N(C)C(=O)C[C@@H](C(=O)N2CCOCC2)NC(=O)[C@H](C2CCCC2)N(C)C(=O)C2(CCC2)NC(=O)[C@@H]2C[C@@H](OCC)CN2C(=O)[C@H](CCc2ccc(C(F)(F)F)c(Cl)c2)NC(=O)CN(C)C(=O)[C@@H]1Cc1ccc(C(F)(F)F)cc1 [PP0342] ([NMeL]I[Aze][Sar][NPrPhe(4-CF3)][Sar][hPhe(3-Cl-4-CF3)][Hyp](Et)[Ac4c][NMeGly(cPent)]D-Morpholide; lactam N-11)
Result: 1700

Problem: Next compound up: CCO[C@@H]1C[C@H]2C(=O)NC3(CCC3)C(=O)N(C)[C@@H](C3CCCC3)C(=O)N(C)[C@H](C(=O)N(C)C)CC(=O)N(C)[C@@H](Cc3cccnc3)C(=O)N[C@@H]([C@@H](C)CC)C(=O)N(C)CC(=O)N(C)[C@H]3CCCCCN(C3=O)[C@@H](Cc3ccc(C(F)(F)F)cc3)C(=O)N(C)CC(=O)N[C@@H](CCc3cc(F)c(C(F)(F)F)c(F)c3)C(=O)N2C1 [PP0673]
Result: 120

Problem: Param item: CCCN1C(=O)CN(C)C(=O)CN(C)C(=O)[C@H]([C@@H](C)CC)NC(=O)[C@H](CC(C)C)N(C)C(=O)C[C@@H](C(=O)N2CCOCC2)N(C)C(=O)[C@H](C2CCCC2)N(C)C(=O)C2(CCCC2)NC(=O)[C@@H]2CC(C)(C)CN2C(=O)[C@H](CCc2ccc(C(F)(F)F)c(Cl)c2)NC(=O)CN(C)C(=O)[C@@H]1Cc1ccc(C(F)(F)F)cc1 [PP0446] ([NMeL]I[Sar][Sar][NPrPhe(4-CF3)][Sar][hPhe(3-Cl-4-CF3)][Pro(4,4-Me2)][Ac5c][NMeGly(cPent)][NMeD]-Morpholide; lactam N-11)
Result: 100

Problem: Check CCCN1C(=O)CN(C)C(=O)CN(CC)C(=O)[C@H](CC)NC(=O)[C@H](CC(C)C)N(C)C(=O)C[C@@H](C(=O)N2CCOCC2)N(C)C(=O)[C@H](C2CCCC2)N(C)C(=O)C2(CCCC2)NC(=O)[C@@H]2CCCN2C(=O)[C@H](CCc2ccc(C(F)(F)F)c(Cl)c2)NC(=O)CN(C)C(=O)[C@@H]1Cc1ccc(C(F)(F)F)cc1 [PP0290] ([NMeL][Abu][NEtG][Sar][NPrPhe(4-CF3)][Sar][hPhe(3-Cl-4-CF3)]P[Ac5c][NMeGly(cPent)][NMeD]-Morpholide; lactam N-11) too.
Result: 4800
